Source listed as patent US8692001B2.

system: H1299 (Non small cell lung carcinoma cell line); experiment: In vitro cell proliferation, Assay Protocol II (cell proliferation index, fluorescent membrane marker, flow cytometry); format: cell-based; conditions: Homo sapiens, NCI-H1299, as measured by Assay Protocol II
pIC50: −log10 of the molar value.
# pIC50 listing for each entry below
PROPERTY MEASURED: pIC50

# MOLECULE, STUDY SYSTEM, PROPERTY MEASURED, REPORTED RESULT
records = [
    ("CC1Cc2cc(S(=O)(=O)c3ccc4c(c3)OCCO4)ccc2N1S(C)(=O)=O (centres unmarked)", "H1299 (Non small cell lung carcinoma cell line)", "pIC50", "> 4.40"),
    ("CS(=O)(=O)N1Cc2ccc(S(=O)(=O)c3ccc4c(c3)OCCO4)cc2C1", "H1299 (Non small cell lung carcinoma cell line)", "pIC50", "> 4.70"),
]

###

# pIC50 listing for each entry below
system: H1299 (Non small cell lung carcinoma cell line); test: In vitro cell proliferation, Assay Protocol I (CellTiterGlo); type: cell-based; details: Homo sapiens, NCI-H1299, 96 total hours of culture
pIC50: −log10 of the molar value.

# COMPOUND, pIC50
rows = [
    ("CC1Cc2cc(S(=O)(=O)c3ccc4c(c3)OCCO4)ccc2N1S(C)(=O)=O (centres unmarked)", "> 5.00"),
    ("CS(=O)(=O)N1CCc2cc(S(=O)(=O)c3ccc4c(c3)OCCO4)ccc21 [Compound 11A]", "> 4.70"),
]

###

# EC50 listing for each entry below
biological target: PKM2, human recombinant (Homo sapiens, UniProt P14618); experiment: PKM2 enzymatic activity assay (Kinase-Glo Plus luminescence); details: PKM2 activation; 0.1 nM PKM2, 0.1 mM ADP, 0.5 mM PEP, room temperature, 1 hour
Sequence (P14618 whole entry): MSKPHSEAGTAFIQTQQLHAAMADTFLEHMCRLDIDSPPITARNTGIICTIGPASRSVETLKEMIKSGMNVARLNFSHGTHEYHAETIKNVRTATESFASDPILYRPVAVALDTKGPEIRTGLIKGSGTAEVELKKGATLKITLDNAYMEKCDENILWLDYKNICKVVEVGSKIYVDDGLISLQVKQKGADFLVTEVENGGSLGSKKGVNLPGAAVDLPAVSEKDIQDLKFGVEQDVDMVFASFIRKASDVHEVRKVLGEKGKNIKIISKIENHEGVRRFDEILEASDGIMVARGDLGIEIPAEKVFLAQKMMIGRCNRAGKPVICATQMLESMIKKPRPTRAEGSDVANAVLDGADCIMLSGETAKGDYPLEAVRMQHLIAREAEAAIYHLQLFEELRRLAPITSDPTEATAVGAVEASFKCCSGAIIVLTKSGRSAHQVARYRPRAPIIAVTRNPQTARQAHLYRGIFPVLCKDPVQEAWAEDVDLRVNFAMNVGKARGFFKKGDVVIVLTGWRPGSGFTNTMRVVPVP

# MOLECULE, EC50
rows = [
    ("CC1Cc2cc(S(=O)(=O)Nc3ccc4c(c3)OCCO4)ccc2N1S(C)(=O)=O (stereo not drawn) [Compound 23A]", "10 to 100 µM"),
    ("CCN(c1ccc(S(=O)(=O)c2ccc3c(c2)OCCO3)c(C)c1)S(C)(=O)=O [Compound 12A]", "1 to 10 µM"),
    ("Cc1cn(S(C)(=O)=O)c2ccc(S(=O)(=O)c3ccc4c(c3)OCCO4)cc12 [Compound 21A]", "1 to 10 µM"),
    ("CC1Cc2cc(S(=O)(=O)c3ccc4c(c3)OCCO4)ccc2N1S(C)(=O)=O (stereo not drawn)", "1 to 10 µM"),
    ("CC(=O)N1c2ccc(S(=O)(=O)c3ccc4c(c3)OCCO4)cc2CC1C (stereo not drawn)", "1 to 10 µM"),
    ("C[C@H]1Cc2cc(S(=O)(=O)c3ccc4c(c3)OCCO4)ccc2N1S(=O)(=O)Cc1ccccc1 [Compound 13A]", "1 to 10 µM"),
    ("CS(=O)(=O)N1CCCc2cc(S(=O)(=O)c3ccc4c(c3)OCCO4)ccc21", "1 to 10 µM"),
    ("CC(C)N(c1ccc(S(=O)(=O)c2ccc3c(c2)OCCO3)cc1)S(C)(=O)=O [Compound 10A]", "1 to 10 µM"),
    ("CCN(c1ccc(S(=O)(=O)c2ccc3c(c2)OCCO3)cc1)S(C)(=O)=O [Compound 24A]", "10 to 100 µM"),
]
